Could you please report measured mass density for the items listed next?
CONDITION_LABEL: 313.15 K; 101 kPa; Liquid; Vibrating tube method
Supply the numeric figure in kg/m3, leaving out any unit text.

For CNCCCN [N-methyl-1,3-diaminopropane] , what is its reported mass density?
833.715

Name the recorded mass density for CN(CCO)CCO [N-methyldiethanolamine] .
1024.86

What does the data say about its mass density? Entry: CN(C)CCO [2-(N,N-dimethylamino)ethanol]
869.428

Fill in: mass density of CCN(CC)CCO [(diethylamino)ethanol] is ___
866.828

* * *

Kindly state mass density for each of the entries shown.
CONDITION_LABEL: 343.15 K; 101 kPa; Liquid; Vibrating tube method
Numbers only; they are read as kg/m3.

// query mass density value for entry CN(CCO)CCO [N-methyldiethanolamine]
1001.73

Tell me the measured mass density of O [water] , please.
977.76

// returns reported mass density for input CNCCCN [N-methyl-1,3-diaminopropane]
806.37

Param item = CCN(CC)CCO [(diethylamino)ethanol] ; retrieve measured mass density.
838.157

What does the data say about its mass density? Entry: CN(C)CCO [2-(N,N-dimethylamino)ethanol]
842.604

* * *

For each of the molecules below, state its mass density.
CONDITION_LABEL: 333.15 K; 101 kPa; Liquid; Vibrating tube method
Give a bare numeral; the unit kg/m3 is implied.

Which mass density is reported for this molecule? CN(CCO)CCO [N-methyldiethanolamine]
1009.51

Using the record for O [water] , report its mass density.
983.197

Need mass density, item CN(C)CCO [2-(N,N-dimethylamino)ethanol]
851.72

Requested field: mass density. Item: CCN(CC)CCO [(diethylamino)ethanol]
847.839

Bench note: what mass density did CNCCCN [N-methyl-1,3-diaminopropane] show?
815.559

* * *

CONDITION_LABEL: 363.15 K; 101 kPa; Liquid; Vibrating tube method
Numbers after ± are expanded uncertainties.
Hi there, I'd appreciate the recorded mass density for every entry that follows.
Numeric answer plus unit only.

Can you look up the measured mass density of CNCCCN for me?
787.723 ± 0.61 kg/m3

# mass density lookup, item O
965.305 ± 0.048 kg/m3

Reported mass density, compound CN(CCO)CCO : ____
985.958 ± 0.82 kg/m3

What value of mass density has been recorded for this entry: CCN(CC)CCO
818.597 ± 0.24 kg/m3

Can you look up the measured mass density of CN(C)CCO for me?
823.754 ± 0.14 kg/m3

* * *

For each of the compounds below, state its mass density.
CONDITION_LABEL: 323.15 K; 101 kPa; Liquid; Vibrating tube method
The response must be a number in kg/m3 with no trailing unit.

Dear colleague, I am looking for the recorded mass density of the following compound: CCN(CC)CCO [(diethylamino)ethanol]
857.388

Any idea what its mass density is? The compound is CN(CCO)CCO [N-methyldiethanolamine]
1017.21

Which mass density reading was recorded for the compound CN(C)CCO [2-(N,N-dimethylamino)ethanol] ?
860.655

# lookup: mass density of CNCCCN [N-methyl-1,3-diaminopropane]
824.673

* * *

CONDITION_LABEL: 303.15 K; 101 kPa; Liquid; Vibrating tube method
QUANTITY: mass density (kg/m3)
Give the value in kg/m3 but do not write kg/m3 after it.

If you can, please state the reported mass density value of CCN(CC)CCO [(diethylamino)ethanol] .
876.155

Can you look up the measured mass density of CN(CCO)CCO [N-methyldiethanolamine] for me?
1032.47

Would you kindly share the measured mass density for CNCCCN [N-methyl-1,3-diaminopropane] ?
842.69

// returns reported mass density for input CN(C)CCO [2-(N,N-dimethylamino)ethanol]
878.059
